Experiment: soluble on expression in E. coli; label from the status in PepcDB or PDB records
Measurement Type: soluble on expression in E. coli

Reference set (5 entries):
Sequence Record	soluble on expression in E. coli
VRMILDTIPKKNRHLVTTHDGYSYLGDAYGLSIAGFVSPNPSVEPSPRDIIALTRTLENLHVPAVFIEPQLALRANHLTVTADKLGIQVCRIYGDSLDDEVPTYLDFMKYNAHSLARCLGQSEGK	not soluble
MLEVSVMTIRRDLHQEDEPLPLTLLGGYIVMVNKPAPSMPVIHDVPKNHRDDLPIAILAAGMVNENDLIFFDNGQEIPLVISMIPDAITFTGICYSHRVFVALNEKPNVTAILCGGTYRARSDAFYDASNSSPLDSLNPRKIFISASGVHNHFGVSWFNPEDLATKRKVMNRGLRKILLARHALFDEVASASLAPISAFDVLISDRPLPADYVTHCQNGSVKIITPDSEDELEHHHHHH	not soluble
MGSDKIHHHHHHMTAATSVRAQAREEDLSVKEILDSRWFQPEMFKTLDYVKGFVGAKVIFQMLKLGVFDDLLAGKTLEEIASGRSLDPYLLRTVFEYLSVEGLLVKEGRGGGASFRLSDYGSRIKHYEGWFNILIGGYDNIFSNIGAMLEEGIGGYKRDGKWVGVGSCQISKYDTIPITKAFIESVKPDAKQIVDFGCGNALYLCTLAKELGDIKAVGIEPDTSAYEAGLKKVAEMGLQDQVRLVNVDALDYEIDEQPDFILFGFVLQEIIAQIGRPAFIEYLRKLGRKFADSYLMVMEVDYDIDNREVMHSPMGRGYYNPYFLLHPFTNQLLLPKREWDEIFAQAGYDVVRDEVTSPKADPSGFGICYVLKYRGAHC	not soluble
MSLTEILIVEDDDIIATLIERFLLQREYVVCAKVATGEDALYKAAEHLPDLVLMDINLAGKIDGITATKFITAIFHIPVIFLSGQDDETTLERATMAEPASFIIKPFNAKDLYSNIEIALHNDRILKRSKDYKGGKIRRIARAALSELDAYFILDKRGRIVFINPYGEHLLNVHRNDIILKPIGKYLTFYDTRQNTVFTDTFQDVIRESLVLGVRQHIAVKMSDNSFRHVVIQSTSIRDSENETIGMIVRMHMKTKSEEGHHHHHH	soluble
MGSDKIHHHHHHAKIRAKNADSYPFMYKNYPFLRPWVDSLNQAHALRDTFVLNPEGIRLHAYYIAAPQPTKKTAVIVHGYTDNAIRMFMIGYLYNHDLQYNVLLPDLQHQGESGGPAIQMGWKDRLDVMQWMHIANQIYGDSTQMVVHGISMGGATTMMVSGEAQPYFVKCFVEDCGYTSVWDEFSHELKSSFHLPSFPLMNTTSWLCQKKYGWNFEEASSLNQVKKSHLPMFFIHGDKDTYVPTWMVYPLYEAKSAPKQLWIVPGAAHAVSYKENKEEYTRKVKEFTDRYIH	not soluble

// lookup soluble on expression in E. coli for `MDQALLDGGYRCYTGEKIDVYFNTAICQHSGNCVRGNGKLFNLKRKPWIMPDEVDVATVVKVIDTCPSGALKYRHK` soluble

Now the same for `MSSVERYLSQLVKTEPQLETLKELYIGKKWHQLTEELLKLIHSGQVNRINLVELYDSFIREFESSLNPLALVRILVGIARKNYRDLNKALEFVDYATNSKAFISADEEASLFLKSETARLKLEGGNLSGVKQILEEVGVAMESTRDLDTVVHSSYHRVCAQYYKAVGPATKYYSSALLFFQYAPLDSFTVEERVHWAYDLGVASIVAETIFNFGEILEYDIMQSLKSEKLQWLLELLEAFKYGSIEKFNQIGNRARDQINQEPALSSNWQFLEQKIRLRSLMELATKKLVERVISFDDICSSCEVTKDQVEYLVMKALSLHLLQGTINEMDETVSISYVQPKTLDRNEVEGLYNRLIPWKTHVHEIALSLERSTEADLAQAQN` soluble

Now the same for `MILFPQNEDTVMSEMVAFRQGTSMPSRETILHYVVETVNQITELEPALHLLPWSGVNSAIYEQRFAQCYDEGLCAAQTSAPNVPQGILPSTDWAQGIGLLCFAAGYMSAGERPLTHNQLCDFVKQAAVGLSPIEGEAASGFSTVRSIALPVFRRLQRDGHASRVLLLQTLLHLVAWKSASQYARQQAQRLLWMGGILGEGGEHSLLVLDKALREEAVGEKSLPALLIFTSFLAHFPAGPVFID` not soluble

Now the same for `SEERLNYIVFNQNISNMANKEVRQALSYALNRNEMIESAYGKEGSVPAKSILVPEADFYTEEGVEGYDQDTNKAKDLLDKSGVKIDKLKIGYNTGRFGHKNYALVAQQELKKIGIEAEIVPYESKAFFNILFSNSTECDMYVNGYAWGLEPNPYRGMFETGQYCNQTKYSNAEIDALWEKGFTELNKEKREEIYKQIQQDISKDAPIYTIDYEQNLMAAQKNL` not soluble

Now the same for `MAHHHHHHMSDSEWSSDSGVSNAEAIAAASLNKHLGELMTLQHPSRVTHRRPAYATSEGTTASSATISHTPRVSGEAPRKQARMDISSLIRQALSQSSAHCTSANVDEVAGRVVAALRQKAGGAEVARAVTRALADPLNEELRESVLSGLLRPEELVALDEVSLLNQAERSVLAKARRERLNQHSVEYLERLNLTVTNMLTCPECRSHECYANFRFTDFVKWQGDDQTPTLQRCCRCSVSFCNERGKRAASAPGACLCAWVAVKVLSATTASRPCIHPSSNRHRTARRGSTRETGKISRFSSCRTRHHFCQKR` not soluble

Now the same for `MGSDKIHHHHHHMSISIYAFYNNKGGVGKTTLCSNAATLYAEKNPKTQVLVIDMCPQANISQFLLGGGKKGYQINQRLQSSATRKNIVGFIDWLLKGNSNFRKPNTSYQVPVYRYNPNISENLYLIAGDSFLESLSLALNYAVINPANIKAWSEYMTAIRRLCEYEYNSETYKDMVVFIDCNPSFSMYTQMALVSSDKIVVPMMADFSSLEGIKSLFMLLFGKYPSAALKQYADGIITFNNQVEHFQLKLPLIYEFVFNNYTIKDGVATAFDSIRTELIDFCYEQFNKFPSLFAPCQHTPTSSKEWENYYFSGIKDFHTSGKVSSSLGIPMSMLPKESKYIMPDGSVVRLPISNYSQALEEIELFVDKIH` not soluble

Every entry's value here was drawn from the DeepSol protein solubility set.
